# Test system: A-549
# assay.name: Inhibition of cell growth by counting cells, A-549
# Format: cell-based, human
# test.context: three days of incubation; read-out: IC50 (molar) A-549
pIC50: −log10 of the molar value.
Use Criterion met when the recorded pIC50 is no lower than 9; use Criterion not met when it is lower.

// below: answered compounds
compound: CCCOc1c(C)c2c(c3c1[C@H]1SC[C@]4(NCCc5cc(O)c(OC)cc54)C(=O)OC[C@@H]3N3C1[C@H]1c4c(cc(C)c(OC)c4O)C[C@@H]([C@@H]3C#N)N1C)OCO2 (stereo partly shown) [Compound 153]
class.assignment: Criterion met

compound: COc1cc2c(cc1OC(=O)CCCCC1SCC3NC(=O)NC31)CCNC21CSC2c3c(OC(C)=O)c(C)c4c(c3C(COC1=O)N1C(C#N)C3Cc5cc(C)c(OC)c(OC(=O)CCCCC6SCC7NC(=O)NC76)c5C(C21)N3C)OCO4 (stereo not shown) [Compound 20]
class.assignment: Criterion not met

Query block: Quick check, pIC50 >= 9? COc1cc2c(cc1OC(=O)OC(C)(C)C)CCN[C@]21CS[C@@H]2c3c(OC)c(C)c4c(c3[C@H](COC1=O)N1C2[C@H]2c3c(cc(C)c(OC)c3OC)C[C@@H]([C@@H]1C#N)N2C)OCO4 (stereo partly shown) [Compound 127]
Result block: Criterion met

Query block: Quick check, pIC50 >= 9? COc1cc2c(cc1OC(=O)CCCCC1SCC3NC(=O)NC31)CCNC21CSC2c3c(OC(C)=O)c(C)c4c(c3C(COC1=O)N1C(C#N)C3Cc5cc(C)c(OC)c(O)c5C(C21)N3C)OCO4 (stereo not shown) [Compound 19]
Result block: Criterion met

Query block: Quick check, pIC50 >= 9? C=CCOC(=O)Oc1c(C)c2c(c3c1[C@H]1SC[C@]4(NCCc5cc(O)c(OC)cc54)C(=O)OC[C@@H]3N3C1[C@H]1c4c(cc(C)c(OC)c4O)C[C@@H]([C@@H]3C#N)N1C)OCO2 (stereo partly shown) [Compound 141]
Result block: Criterion met

Query block: Quick check, pIC50 >= 9? COc1cc2c(cc1OC(=O)OC(C)(C)C)CCN[C@]21CS[C@@H]2c3c(OC)c(C)c4c(c3[C@H](COC1=O)N1C2[C@H]2c3c(cc(C)c(OC)c3O)C[C@@H]([C@@H]1C#N)N2C)OCO4 (stereo partly shown) [Compound 126]
Result block: Criterion met
